The reported numbers originate from PubChem BioAssay AID720706.

# experimentSummary: GFP drop in mixed WT/humanized-ribosome E. coli culture – GFP/RFP fluorescence, OD600, single point, bacterial rRNA inhibitor project, primary screen (AID 720706)
# assaySetup: E. coli WT GFP vs humanized-ribosome RFP mutants, 24 h; measured here: OD600 growth, DMSO median 0, no signal -100
Out of some 350,000 compounds screened, about 5,500 (1.6%) were called active. The full list was thinned out, with actives kept by preference.
outcomeMeasure: OD600 change (%)
Numbers only, in %.

Examples with answers:
INSERT INTO measurements (compound, value) VALUES
  ('COc1cccc(CN(C)C[C@H]2OCc3ccccc3-c3c(n(C)c4ccccc34)C(=O)N([C@@H](C)CO)C[C@@H]2C)c1', -41.4),
  ('COCCNc1cc(-c2ccccc2)nc2cc(-c3cccc(F)c3)nn12', 8.3),
  ('CC(C)c1ccc(NS(=O)(=O)c2cn(C)c(=O)n(C)c2=O)cc1', 14.4);

Please give OD600 change for each item listed below.
1. CCCC(=O)Nc1ccc2c(c1)C(=O)N(C)[C@@H]1CC[C@H](CC(=O)NCCOC)O[C@H]1CO2
2. COc1ccc(NC(=O)Nc2ccc3c(c2)CC(=O)N([C@H](C)CO)C[C@H](C)[C@H](CN(C)S(=O)(=O)c2ccccc2)O3)cc1

[0.14, -2.9]

Please give OD600 change for each item listed below.
1. COc1ccc(S(=O)(=O)Nc2ccc3c(c2)CC(=O)N([C@H](C)CO)C[C@H](C)[C@@H](CN(C)C)O3)cc1
2. COC(=O)c1c(C)oc(C)c1S(=O)(=O)NCc1ccc(Cl)cc1
3. COc1cccc(CNC(=O)COC(=O)CN2C(=O)NC3(CCCCC3C)C2=O)c1 (stereo not drawn)

1: 13.2; 2: -4.55; 3: 0.95

Please give OD600 change for each item listed below.
1. Cc1noc(C)c1S(=O)(=O)Nc1ccc2c(c1)C(=O)N([C@H](C)CO)C[C@H](C)[C@H](CN(C)S(=O)(=O)c1cn(C)cn1)OCCCC[C@@H](C)O2
2. CC1CCCCC12NC(=O)N(CC(=O)OCC(=O)NCc1ccc(F)cc1)C2=O (stereo not drawn)
3. CCC(=O)N[C@H]1CC[C@@H](CC(=O)NCC2CC2)O[C@@H]1CO
4. C[C@@H]1CN([C@H](C)CO)C(=O)c2cc(-c3cncnc3)cnc2O[C@@H]1CN(C)Cc1ccc(Oc2ccccc2)cc1
5. CC1CCCCC12NC(=O)N(CC(=O)OCc1c(F)cccc1Cl)C2=O (stereo not drawn)
6. C[C@H](CO)N1C[C@H](C)[C@H](CN(C)C(=O)Nc2ccc(C(F)(F)F)cc2)Oc2ccc(NS(=O)(=O)c3ccccc3)cc2CC1=O
7. CCc1cc(C(=O)OC)c(NC(=O)CC2Sc3ccc(C(F)(F)F)cc3NC2=O)s1 (stereo not drawn)
8. N#Cc1ccc(CSc2ncccn2)cc1

1: -4.58; 2: -0.669; 3: 7.08; 4: 8.99; 5: -16.3; 6: -0.79; 7: 4.88; 8: -1.11

Please give OD600 change for each item listed below.
1. Cc1ccc(S(=O)(=O)N[C@H]2CC[C@@H](CC(=O)NCCCN(C)C)O[C@H]2CO)cc1
2. CCc1cc2cc(OC)ccc2nc1SCC(=O)Nc1cc(OC)c(OC)cc1C(=O)O

1: 5.89; 2: -8.13
